target: Rat NHE-3 (Rattus norvegicus, UniProt P26433); construct: expressed in transfected cells; host or cells: Opossum kidney (OK) cells (ATCC), transfected by electroporation; assay: Cell-based assay of NHE-3 activity (persistent inhibition, after washout); conditions: OK cells with rat NHE-3 gene, 60 min incubation, recovery initiated 40 min after compound washout
Sequence (P26433 29-831): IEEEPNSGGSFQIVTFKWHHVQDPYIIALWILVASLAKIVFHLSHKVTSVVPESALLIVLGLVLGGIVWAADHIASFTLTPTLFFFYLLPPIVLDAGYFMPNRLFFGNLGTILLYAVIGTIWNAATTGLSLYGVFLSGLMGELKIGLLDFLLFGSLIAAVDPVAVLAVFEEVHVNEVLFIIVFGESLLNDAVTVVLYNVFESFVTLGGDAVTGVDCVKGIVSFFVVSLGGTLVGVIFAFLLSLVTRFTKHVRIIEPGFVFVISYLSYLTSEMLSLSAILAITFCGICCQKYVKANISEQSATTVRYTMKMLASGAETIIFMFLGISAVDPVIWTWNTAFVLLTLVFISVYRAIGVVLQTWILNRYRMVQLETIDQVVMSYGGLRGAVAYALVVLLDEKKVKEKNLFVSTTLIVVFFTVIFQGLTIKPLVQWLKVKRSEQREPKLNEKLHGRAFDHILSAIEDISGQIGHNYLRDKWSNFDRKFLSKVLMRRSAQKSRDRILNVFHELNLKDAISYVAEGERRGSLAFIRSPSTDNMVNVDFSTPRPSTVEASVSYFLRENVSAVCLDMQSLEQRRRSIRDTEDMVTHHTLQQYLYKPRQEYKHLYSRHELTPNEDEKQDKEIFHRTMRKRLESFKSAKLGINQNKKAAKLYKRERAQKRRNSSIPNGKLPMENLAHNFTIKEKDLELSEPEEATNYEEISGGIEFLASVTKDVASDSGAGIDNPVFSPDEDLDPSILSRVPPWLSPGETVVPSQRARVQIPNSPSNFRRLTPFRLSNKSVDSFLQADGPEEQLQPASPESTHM
Experimental Readout: Rat NHE3 pIC50 (persistent)

Answered cases to consult:
• CN1Cc2c(Cl)cc(Cl)cc2C(c2cccc(S(=O)(=O)NCCOCCOCCNC(=O)CCC(CCC(=O)NCCOCCOCCNS(=O)(=O)c3cccc(C4CN(C)Cc5c(Cl)cc(Cl)cc54)c3)(CCC(=O)NCCOCCOCCNS(=O)(=O)c3cccc(C4CN(C)Cc5c(Cl)cc(Cl)cc54)c3)NC(=O)C3CCCCC3C(=O)O)c2)C1 (stereo not shown) [Example 28] = C (C NHE3 pIC50 > 7)
• CN1Cc2c(Cl)cc(Cl)cc2[C@H](c2cccc(S(=O)(=O)NCCOCCOCCNC(=O)CCC(CCC(=O)NCCOCCOCCNS(=O)(=O)c3cccc([C@@H]4CN(C)Cc5c(Cl)cc(Cl)cc54)c3)(CCC(=O)NCCOCCOCCNS(=O)(=O)c3cccc([C@@H]4CN(C)Cc5c(Cl)cc(Cl)cc54)c3)NCc3ccc(-c4ccc(Cl)cc4)cc3)c2)C1 [Example 24] = B (B NHE3 pIC50 5-7)
• CN1Cc2c(Cl)cc(Cl)cc2[C@H](c2cccc(S(=O)(=O)NCCOCCOCCOCCNC(=O)NCCCN(CCCNC(=O)NCCOCCOCCOCCNS(=O)(=O)c3cccc([C@@H]4CN(C)Cc5c(Cl)cc(Cl)cc54)c3)CCCNC(=O)NCCOCCOCCOCCNS(=O)(=O)c3cccc([C@@H]4CN(C)Cc5c(Cl)cc(Cl)cc54)c3)c2)C1 [Example 51] = C (C NHE3 pIC50 > 7)
• CN1Cc2c(Cl)cc(Cl)cc2[C@H](c2cccc(S(=O)(=O)NCCOCCOCCN(C)C(=O)CCC(CCC(=O)N(C)CCOCCOCCNS(=O)(=O)c3cccc([C@@H]4CN(C)Cc5c(Cl)cc(Cl)cc54)c3)(CCC(=O)N(C)CCOCCOCCNS(=O)(=O)c3cccc([C@@H]4CN(C)Cc5c(Cl)cc(Cl)cc54)c3)NC(=O)NCC(=O)O)c2)C1 [Example 69] = C (C NHE3 pIC50 > 7)
• CN1Cc2c(Cl)cc(Cl)cc2[C@H](c2cccc(S(=O)(=O)NCCOCCOCCNC(=O)CCC(CCC(=O)NCCOCCOCCNS(=O)(=O)c3cccc([C@@H]4CN(C)Cc5c(Cl)cc(Cl)cc54)c3)(CCC(=O)NCCOCCOCCNS(=O)(=O)c3cccc([C@@H]4CN(C)Cc5c(Cl)cc(Cl)cc54)c3)NC(=O)Cc3nnn[nH]3)c2)C1 [Example 38] = C (C NHE3 pIC50 > 7)

Task item: Need Rat NHE3 pIC50 (persistent), item CN1Cc2c(Cl)cc(Cl)cc2[C@H](c2cccc(S(=O)(=O)N(C)CCOCCOCCNC(=O)NCCCN(CCCNC(=O)NCCOCCOCCN(C)S(=O)(=O)c3cccc([C@@H]4CN(C)Cc5c(Cl)cc(Cl)cc54)c3)CCCNC(=O)NCCOCCOCCN(C)S(=O)(=O)c3cccc([C@@H]4CN(C)Cc5c(Cl)cc(Cl)cc54)c3)c2)C1 [Example 54]
Reply: C (C NHE3 pIC50 > 7)

Task item: Need Rat NHE3 pIC50 (persistent), item CN1Cc2c(Cl)cc(Cl)cc2[C@H](c2cccc(S(=O)(=O)NCCOCCOCCNC(=O)NCCCC(CCCNC(=O)NCCOCCOCCNS(=O)(=O)c3cccc([C@@H]4CN(C)Cc5c(Cl)cc(Cl)cc54)c3)(CCCNC(=O)NCCOCCOCCNS(=O)(=O)c3cccc([C@@H]4CN(C)Cc5c(Cl)cc(Cl)cc54)c3)NC(=O)CCC(=O)O)c2)C1 [Example 63]
Reply: C (C NHE3 pIC50 > 7)

Task item: Need Rat NHE3 pIC50 (persistent), item CNC(=O)NC(CCC(=O)NCCOCCOCCNS(=O)(=O)c1cccc([C@@H]2CN(C)Cc3c(Cl)cc(Cl)cc32)c1)(CCC(=O)NCCOCCOCCNS(=O)(=O)c1cccc([C@@H]2CN(C)Cc3c(Cl)cc(Cl)cc32)c1)CCC(=O)NCCOCCOCCNS(=O)(=O)c1cccc([C@@H]2CN(C)Cc3c(Cl)cc(Cl)cc32)c1 [Example 26]
Reply: C (C NHE3 pIC50 > 7)

Task item: Need Rat NHE3 pIC50 (persistent), item CN1Cc2c(Cl)cc(Cl)cc2[C@H](c2cccc(S(=O)(=O)NCCOCCOCCNC(=O)CCC(CCC(=O)NCCOCCOCCNS(=O)(=O)c3cccc([C@@H]4CN(C)Cc5c(Cl)cc(Cl)cc54)c3)(CCC(=O)NCCOCCOCCNS(=O)(=O)c3cccc([C@@H]4CN(C)Cc5c(Cl)cc(Cl)cc54)c3)NC(=O)N[C@@H](CO)C(=O)O)c2)C1 [Example 39]
Reply: C (C NHE3 pIC50 > 7)

Task item: Need Rat NHE3 pIC50 (persistent), item CN1Cc2c(Cl)cc(Cl)cc2[C@H](c2cccc(S(=O)(=O)N(CCO)CCOCCOCCNC(=O)NCCCN(CCCNC(=O)NCCOCCOCCN(CCO)S(=O)(=O)c3cccc([C@@H]4CN(C)Cc5c(Cl)cc(Cl)cc54)c3)CCCNC(=O)NCCOCCOCCN(CCO)S(=O)(=O)c3cccc([C@@H]4CN(C)Cc5c(Cl)cc(Cl)cc54)c3)c2)C1 [Example 56]
Reply: C (C NHE3 pIC50 > 7)

Task item: Need Rat NHE3 pIC50 (persistent), item CN1Cc2c(Cl)cc(Cl)cc2[C@H](c2cccc(S(=O)(=O)NCCOCCOCCNC(=O)NCCN(CCNC(=O)NCCOCCOCCNS(=O)(=O)c3cccc([C@@H]4CN(C)Cc5c(Cl)cc(Cl)cc54)c3)C(=O)CCOCCOCCOCCOCCOCCOCCOCCOCCOCCC(=O)N(CCNC(=O)NCCOCCOCCNS(=O)(=O)c3cccc([C@@H]4CN(C)Cc5c(Cl)cc(Cl)cc54)c3)CCNC(=O)NCCOCCOCCNS(=O)(=O)c3cccc([C@@H]4CN(C)Cc5c(Cl)cc(Cl)cc54)c3)c2)C1 [Example 61]
Reply: B (B NHE3 pIC50 5-7)

Task item: Need Rat NHE3 pIC50 (persistent), item CN1Cc2c(Cl)cc(Cl)cc2[C@H](c2cccc(S(=O)(=O)NCCOCCOCCOCCNC(=O)CN(CCN(CC(=O)NCCOCCOCCOCCNS(=O)(=O)c3cccc([C@@H]4CN(C)Cc5c(Cl)cc(Cl)cc54)c3)CC(=O)NCCOCCOCCOCCNS(=O)(=O)c3cccc([C@@H]4CN(C)Cc5c(Cl)cc(Cl)cc54)c3)CCN(CC(=O)NCCOCCOCCOCCNS(=O)(=O)c3cccc([C@@H]4CN(C)Cc5c(Cl)cc(Cl)cc54)c3)CC(=O)NCCOCCOCCOCCNS(=O)(=O)c3cccc([C@@H]4CN(C)Cc5c(Cl)cc(Cl)cc54)c3)c2)C1 [Example 49]
Reply: B (B NHE3 pIC50 5-7)

Task item: Need Rat NHE3 pIC50 (persistent), item CN1Cc2c(Cl)cc(Cl)cc2[C@H](c2cccc(S(=O)(=O)NCCOCCOCCOCCNC(=O)CN(CC(=O)NCCOCCOCCOCCNS(=O)(=O)c3cccc([C@@H]4CN(C)Cc5c(Cl)cc(Cl)cc54)c3)[C@@H]3CCCC[C@H]3N(CC(=O)NCCOCCOCCOCCNS(=O)(=O)c3cccc([C@@H]4CN(C)Cc5c(Cl)cc(Cl)cc54)c3)CC(=O)NCCOCCOCCOCCNS(=O)(=O)c3cccc([C@@H]4CN(C)Cc5c(Cl)cc(Cl)cc54)c3)c2)C1 [Example 48]
Reply: C (C NHE3 pIC50 > 7)
